Quick reference for TGI among some compounds
system: MOLT-4 leukemia; assay: NCI tumour cell line growth inhibition, 48 h
ENDPOINT: TGI

[[record]]
compound = "Cc1cc(O)c(C2=NN(c3ccc(S(N)(=O)=O)cc3)C(c3ccc(Cl)cc3)C2)c(C)c1Cl (stereo unspecified)"
endpoint = "TGI"
endpoint_value = "7.25 µM"

[[record]]
compound = "CC(=O)O[C@]1(C)OC(=O)[C@@H](CC(C)C)N1[N+](=O)[O-]"
endpoint = "TGI"
endpoint_value = "> 100 µM"

[[record]]
compound = "CCCC(=O)N[C@H]1C2C3CC4C5CC(C42)C1(C)C53 (stereo partly specified)"
endpoint = "TGI"
endpoint_value = "> 100 µM"

[[record]]
compound = "CC(=O)NC1C(OCc2ccccc2)OC(CO)C(O)C1OC(C)C(=O)NC(C(=O)NC(CCC(=O)NCCCCNc1c2ccccc2nc2cccc([N+](=O)[O-])c12)C(N)=O)C(C)C (stereo unspecified)"
endpoint = "TGI"
endpoint_value = "26.8 µM"

[[record]]
compound = "O=c1[nH]c2nc(NC3CCOCC3)ncc2cc1Oc1ccc(F)cc1F"
endpoint = "TGI"
endpoint_value = "> 25 µM"

[[record]]
compound = "NN=C(CC(O)(C(F)(F)Cl)C(F)(F)Cl)CC(O)(C(F)(F)Cl)C(F)(F)Cl"
endpoint = "TGI"
endpoint_value = "> 10 µM"

[[record]]
compound = "Cn1cc(-c2ccc3nnc(Sc4ccc5ncccc5c4)n3n2)cn1"
endpoint = "TGI"
endpoint_value = "> 100 µM"

[[record]]
compound = "CN1C(=O)C(O)C[C@@H]1c1ccccc1 (stereo partly specified)"
endpoint = "TGI"
endpoint_value = "> 100 µM"

[[record]]
compound = "C=C1CCC2(C#N)[C@H]3[C@H](CC[C@@H]2C)[C@@H](C)C[C@@H](CC(C)(C)NC(=O)CN2CCC2=O)[C@H]13 (stereo partly specified)"
endpoint = "TGI"
endpoint_value = "70.3 µM"

[[record]]
compound = "c1ccc2c(c1)SCCCSCCSCCCS2"
endpoint = "TGI"
endpoint_value = "> 100 µM"

[[record]]
compound = "C1CC2CN(CCCN3CCOCC3)C(C1)O2 (stereo unspecified)"
endpoint = "TGI"
endpoint_value = "> 100 µM"

[[record]]
compound = "COC[C@@H](N=Cc1ccc([N+](=O)[O-])cc1)C(C)C"
endpoint = "TGI"
endpoint_value = "> 100 µM"

[[record]]
compound = "O=c1c(-c2ccccc2)c(SCCO)n(-c2ccccc2)c(=S)n1-c1ccccc1"
endpoint = "TGI"
endpoint_value = "> 100 µM"

[[record]]
compound = "OCc1ccc(-c2cscc2-c2ccc(CO)o2)o1"
endpoint = "TGI"
endpoint_value = "> 100 µM"

[[record]]
compound = "C1CC[N-]CC1.CC(=N\\O)/C(C)=N/O.CC(=N\\O)/C(C)=N/O.OC1[CH-]CCCC1.[Co+2]"
endpoint = "TGI"
endpoint_value = "99.1 µM"

[[record]]
compound = "CN1CCc2c1nc(-c1ccc(Cl)cc1)c1c2N(C)CC1"
endpoint = "TGI"
endpoint_value = "31.4 µM"

[[record]]
compound = "CC(Oc1ccccc1Cl)C(=O)NN1C(=O)CSC1c1ccccc1 (stereo unspecified)"
endpoint = "TGI"
endpoint_value = "> 100 µM"

[[record]]
compound = "CCOP(=O)(O)CN1CCNCCN(CP(=O)(O)OCC)CCNCC1"
endpoint = "TGI"
endpoint_value = "> 100 µM"

[[record]]
compound = "CCCCCCCCCCCCCCCCCCNc1nc(=O)n(C2CC(O)C(COP(=O)(O)O)O2)cc1F (stereo unspecified)"
endpoint = "TGI"
endpoint_value = "> 96.1 µM"

[[record]]
compound = "COc1cc2cc(C(=O)N3CC(COS(C)(=O)=O)c4ccc(O)cc43)[nH]c2c(OC)c1OC (stereo unspecified)"
endpoint = "TGI"
endpoint_value = "0.0924 µM"

[[record]]
compound = "Cc1c2c(c(C)c3c4c(oc13)CCCC4)C=NCC2"
endpoint = "TGI"
endpoint_value = "45.1 µM"


###

test system: HL-60(TB) leukemia; assay: NCI tumour cell line growth inhibition, 48 h
ENDPOINT: GI50

[[record]]
compound = "Cc1nnc2n1N=C(c1ccc(Cl)cc1Cl)/C(=C/c1ccc(-c3ccc([N+](=O)[O-])cc3Cl)o1)S2"
endpoint_value = "25.1 µM"

[[record]]
compound = "Cc1nc2ccc(NC(=O)CCNC(=O)CCCc3ccc(CC(C(=O)O)C(=O)O)cc3)cc2s1"
endpoint_value = "> 100 µM"

[[record]]
compound = "O=C1CCC(N2C(=O)c3ccccc3C2=O)C(=O)N1 (stereo not given)"
endpoint_value = "> 100 µM"

[[record]]
compound = "C1=C2CCCC3=Cc4ccccc4OC23Oc2ccccc21"
endpoint_value = "3.24 µM"

[[record]]
compound = "O=c1[nH]c2nc(NC3CCOCC3)ncc2cc1Oc1ccc(F)cc1F"
endpoint_value = "> 25 µM"


###

Quick reference for TGI among some compounds
test system: RXF 393 renal; assay: NCI tumour cell line growth inhibition, 48 h
ENDPOINT: TGI (µM)

[[record]]
compound = "Cc1nn2c(/C=C3/C(=O)Nc4cc(Cl)ccc43)c(-c3ccccc3)nc2s1"
relation_symbol = "="
endpoint_value = 5.97

[[record]]
compound = "CCOC(=O)c1cc2c([N+](=O)[O-])c(N)ccc2s1"
relation_symbol = ">"
endpoint_value = 100

[[record]]
compound = "COc1ccc(C(SC2C(O)C(CO)OC2n2ccc(=O)[nH]c2=O)(c2ccccc2)c2ccc(OC)cc2)cc1 (stereo not drawn)"
relation_symbol = "="
endpoint_value = 32.4

[[record]]
compound = "CC(C)(C)OC(=O)NCC(CNC(=O)OC(C)(C)C)c1nc(C(N)=O)cs1"
relation_symbol = ">"
endpoint_value = 100

[[record]]
compound = "CC1=Nc2ccccc2/C1=C\\c1c(C)[nH]c2ccccc12"
relation_symbol = "="
endpoint_value = 33.2

[[record]]
compound = "NN=C(CC(O)(C(F)(F)Cl)C(F)(F)Cl)CC(O)(C(F)(F)Cl)C(F)(F)Cl"
relation_symbol = ">"
endpoint_value = 10

[[record]]
compound = "CCOC(=O)CCn1ncc(Cl)c(Cl)c1=O"
relation_symbol = "="
endpoint_value = 29

[[record]]
compound = "Cc1cc2c([nH]c3ccccc32)c(O)c1-c1c(C)cc2c([nH]c3ccccc32)c1O"
relation_symbol = "="
endpoint_value = 23.1

[[record]]
compound = "O=C1CC(c2[nH]nc3ccccc23)C(=O)N1c1ccccc1 (stereo not drawn)"
relation_symbol = ">"
endpoint_value = 100

[[record]]
compound = "CC(C)(C)C(=CS(=O)/N=C/c1ccccc1)C(C)(C)C (stereo not drawn)"
relation_symbol = "="
endpoint_value = 74.5

[[record]]
compound = "C=C=C(CC(CC(=C)Br)(C(=O)OC)C(=O)OC)S(=O)(=O)c1ccccc1"
relation_symbol = "="
endpoint_value = 3.99

[[record]]
compound = "COc1ccc2[nH]c(O)c(/C=c3/cc4c(c(-c5ccc(F)c(OC)c5)n3)=Nc3ccccc3-4)c2c1"
relation_symbol = "="
endpoint_value = 3.01

[[record]]
compound = "O=C1c2c(O)cccc2-c2nn(CCNCCO)c3ccc(NCCNCCO)c1c23"
relation_symbol = "="
endpoint_value = 1.37

[[record]]
compound = "COc1ccc(C(O)c2cc3c(N)c(C(=O)Nc4cccc(Cl)c4)sc3nc2C)cc1 (stereo not drawn)"
relation_symbol = "="
endpoint_value = 1.76

[[record]]
compound = "COC(=O)COc1ccc(/C=C2/N=C(c3ccccc3)N(c3c(C)n(C)n(-c4ccccc4)c3=O)C2=O)cc1"
relation_symbol = "="
endpoint_value = 36.5

[[record]]
compound = "O=C(Nc1ccccc1C(=O)NCc1ccccc1)/C(=C/c1ccccc1)NC(=O)c1ccccc1"
relation_symbol = ">"
endpoint_value = 100

[[record]]
compound = "CC1CCSC(N(C(=O)N(C)c2ccccc2)c2ccccc2)=N1 (stereo not drawn)"
relation_symbol = ">"
endpoint_value = 100

[[record]]
compound = "O=C(c1cccs1)N1CCN(C(=O)c2cccs2)C1=S"
relation_symbol = "="
endpoint_value = 10.5

[[record]]
compound = "C/C(=N\\Nc1nc2cc(C(F)(F)F)ccc2s1)c1ccccn1"
relation_symbol = "="
endpoint_value = 12.5

[[record]]
compound = "COc1cc(C2c3cc4c(cc3C3OC[C@@H]2C3CO)OCO4)cc(OC)c1OC (stereo partly drawn)"
relation_symbol = ">"
endpoint_value = 100

[[record]]
compound = "CC(C)(C)CC(C)(C)c1cc(O)c(O)c(CN2CCCCC2)c1"
relation_symbol = "="
endpoint_value = 29.2

[[record]]
compound = "c1cncc(CNCc2cccnc2)c1"
relation_symbol = ">"
endpoint_value = 100

[[record]]
compound = "Nc1nc(Cl)cc(NC23CC4CC(CC(C4)C2)C3)n1"
relation_symbol = ">"
endpoint_value = 100

[[record]]
compound = "C#CCn1c(=O)c(C)cn(/C(=C\\C(=O)OCC)C(=O)OCC)c1=O"
relation_symbol = "="
endpoint_value = 4.49

[[record]]
compound = "CCOC(=O)N1CCc2cc(OC)c(OC)cc2/C1=C\\c1ccc(OC)c(OC)c1"
relation_symbol = "="
endpoint_value = 54.2

[[record]]
compound = "c1ccc(-c2nc(N3CCOCC3)c3c4c(sc3n2)CCCCCC4)nc1"
relation_symbol = "="
endpoint_value = 25.5

[[record]]
compound = "O=C(c1ccccc1)c1c(NCC(O)CN2CCOCC2)n(Cc2ccccc2)c(=O)n(Cc2ccccc2)c1=O (stereo not drawn)"
relation_symbol = ">"
endpoint_value = 94

[[record]]
compound = "CC(C)(C)n1c(=O)[nH]c(=O)n1C(C)(C)C"
relation_symbol = ">"
endpoint_value = 100

[[record]]
compound = "NCCOCCOCCNc1nc(-c2ccc(Cl)cc2)nc(N2CCN(c3ccccn3)CC2)n1"
relation_symbol = "="
endpoint_value = 5.76

[[record]]
compound = "CCOP(=O)(O)CN1CCNCCN(CP(=O)(O)OCC)CCNCC1"
relation_symbol = ">"
endpoint_value = 100

[[record]]
compound = "O=C1CCC(N2C(=O)c3ccccc3C2=O)C(=O)N1 (stereo not drawn)"
relation_symbol = ">"
endpoint_value = 100

[[record]]
compound = "O=C(Nc1ccc(-c2nc(-c3cccc(OCCN4CCOCC4)c3)c(-c3ccnc(Br)c3)[nH]2)cc1)c1ccccc1"
relation_symbol = "="
endpoint_value = 1.12

[[record]]
compound = "CN(C)Cc1cc(C(=O)/C=C/c2ccccc2)cc(CN(C)C)c1O"
relation_symbol = "="
endpoint_value = 71.8


All figures here come from PubChem BioAssay (NCI).
